Hello, the source for this data is ChEMBL document CHEMBL3507680, in case you need it.

Experiment: Human HepG2 cell viability assay in 384 well format
Type: toxicity, cell-based
Parameters: dose 125 nL, time 70.5 hour; concentration not given beside the values
Conditions: HepG2 cells, read-out: Inhibition
Each entry below carries its reported cytotoxicity at 70.5 h.
quantity_name: cytotoxicity at 70.5 h (%)

molecule | numeric_readout
COc1ccc(SC(C)C(=O)N2CCC(C(N)=O)CC2)cc1 (stereo not given) | -14.1
COC(=O)COn1c(OC)nc2ccccc2c1=O | -11.7
Cc1cc(CNC(=O)c2cc(NC(=O)C(C)C)ccc2Cl)no1 | 13.5
Cc1nc(N2CCOCC2)ncc1-c1cc(O)nc(N2CCCCC2)n1 | 14.1
CN(CCc1ccccn1)C(=O)CCC1CCCN(S(C)(=O)=O)C1 (stereo not given) | 3.47

* * *

Each entry below carries its reported cytotoxicity at 70.5 h.
Assay: Human HepG2 cell viability assay in 384 well format
Type: toxicity, cell-based
Parameters: dose 125 nL, time 70.5 hour; concentration not given beside the values
Details: HepG2 cells, read-out: Inhibition

molecule | cytotoxicity at 70.5 h (%)
O=C(c1ccc(O)c(Cl)c1)N(Cc1ccncc1)C1CC1 | -2.89
O=C(NCc1nnc2n1CCCCC2)N1CCc2sccc2C1 | -5.42
CSCc1cccc(S(=O)(=O)NCCCN2CCOCC2)c1 | -6.88
Cc1nn(CCNS(=O)(=O)NCc2ccccc2)c(C)c1Cl | -6.81
O=C(c1cccnc1)N1CCOC(c2ccc(-c3cncnc3)cn2)C1 (configuration not stated) | -0.513
Cc1cc(C2CCN(C(=O)c3cnn(C)c3)CC2)ccn1 | -5.33
CCOCC(=O)N1CCC(Oc2ccc(C(F)(F)F)cn2)CC1 | -4.36

* * *

Each entry below carries its reported cytotoxicity at 70.5 h.
Assay: Human HepG2 cell viability assay in 384 well format
Assay type: toxicity, cell-based
Design: dose 125 nL, time 70.5 hour; concentration not given beside the values
Settings: HepG2 cells, read-out: Inhibition

molecule | cytotoxicity at 70.5 h (%)
Cc1cccnc1CN1CCN(C(=O)c2cnn(C(C)C)c2)CC1 | 15.6
COC(=O)NCC(=O)N1CCCCC1c1nc2cc(F)ccc2[nH]1 (stereo not given) | 1.25
O=C(COc1cccc(Br)c1)N1CCOCC1c1ncon1 (stereo not given) | -3.27
CCN1CCCC(c2nc(O)c3cc(C)ccc3n2)C1 (stereo not given) | -8.23
CC(C)c1noc(C(C)N2CCN(CCN3CCCC3=O)CC2)n1 (stereo not given) | -11.8

* * *

Each entry below carries its reported cytotoxicity at 70.5 h.
Assay: Human HepG2 cell viability assay in 384 well format
Type: toxicity, cell-based
Parameters: dose 125 nL, time 70.5 hour; concentration not given beside the values
Settings: HepG2 cells, read-out: Inhibition
quantity_name: cytotoxicity at 70.5 h (%)

molecule | quantity_name | uom | numeric_readout
Cc1nc2ccccc2n1Cc1cc(C(=O)N2C[C@@H](C)O[C@@H](C)C2)no1 | cytotoxicity at 70.5 h | % | -8.42
CC1(C(=O)NC2CCCC2)CCCN(c2ncccn2)C1 (configuration not stated) | cytotoxicity at 70.5 h | % | 6.47
Cc1ccc(S(=O)(=O)NCCc2ccoc2)s1 | cytotoxicity at 70.5 h | % | -9.94
Cc1ccc(-c2noc(CCC3CCN(C)CC3)n2)nn1 | cytotoxicity at 70.5 h | % | -5.24
Cc1cnn(C2(C(=O)O)CCN(Cc3oc4ccccc4c3C)CC2)c1 | cytotoxicity at 70.5 h | % | -8.33
COc1cc(CNCC(O)c2cccc(F)c2)cc2c1OCO2 (configuration not stated) | cytotoxicity at 70.5 h | % | 1.4
O=C(O)[C@@H]1CN(Cc2ccc3nsnc3c2)C[C@H]1c1cccnc1 | cytotoxicity at 70.5 h | % | 1.8
Cc1ncoc1C(=O)N1CCn2c(COc3cccnc3)cnc2C1C (configuration not stated) | cytotoxicity at 70.5 h | % | 17.8
CSCC(CCO)NC(=O)Nc1cc(F)ccc1C (configuration not stated) | cytotoxicity at 70.5 h | % | 10.3
N[C@@H]1CC[C@@H](NC(=O)c2ccccc2OC(F)(F)C(F)F)C1 | cytotoxicity at 70.5 h | % | 16
Cc1ccc(S(=O)(=O)N2CC(C)Oc3ncccc32)c(F)c1 (configuration not stated) | cytotoxicity at 70.5 h | % | -7.65
O=C([C@H]1CC[C@@H]2[C@@H](CCN2C2CCCCC2)O1)N1CCOCC1 | cytotoxicity at 70.5 h | % | -7.67
COC(=O)c1cc(CN2CCN(c3ncccc3C)CC2)ccc1O | cytotoxicity at 70.5 h | % | 39.9
Brc1ccc(CNCc2nnc3n2CCC3)s1 | cytotoxicity at 70.5 h | % | 14.8
COCCCC(=O)Nc1[nH]nc(-c2ccncc2)c1C | cytotoxicity at 70.5 h | % | -3.19
CCN(C(=O)c1nc2c(s1)CCCN2Cc1ccccc1)C(C)C | cytotoxicity at 70.5 h | % | -7.5
CN(CCC#N)C(=O)CN1CCCC1c1cccs1 (configuration not stated) | cytotoxicity at 70.5 h | % | -4.47
Cc1ccccc1C(=O)NC[C@@H]1CCN(C(=O)c2cccn2C)C[C@H]1O | cytotoxicity at 70.5 h | % | -13
Cc1ccc(N2CC[C@@H]3O[C@@H](c4ccncn4)C[C@H]3C2)nn1 | cytotoxicity at 70.5 h | % | -3.76
CCOc1cc(NC(=O)N2CCOC3(CCC3)C2)ccc1C | cytotoxicity at 70.5 h | % | -5.84
Cc1cc(C2CCCN2Cc2cccc(C(=O)Nc3nccs3)c2)no1 (configuration not stated) | cytotoxicity at 70.5 h | % | -14.5
COC(=O)[C@@H](NC(=O)c1snnc1-c1ccc(OC)cc1)C(C)C | cytotoxicity at 70.5 h | % | 11.1
Cc1cc(C)c2c(N3CCN(C(=O)N(C)C)CC3)ncnc2n1 | cytotoxicity at 70.5 h | % | -3.44
COCCn1cc(CCC(=O)Nc2c(C)nn(C)c2C)c2ccccc21 | cytotoxicity at 70.5 h | % | 49.6
O=C(NC1CCCc2c1[nH]c1ccc(F)cc21)c1n[nH]c2c1CCCC2 (configuration not stated) | cytotoxicity at 70.5 h | % | 27
COCC(NC(=O)c1ccoc1C)c1cccc(C(F)(F)F)c1 (configuration not stated) | cytotoxicity at 70.5 h | % | -2.1
COCCn1ccc2c(NC(=O)c3n[nH]c4c3CCC4)cccc21 | cytotoxicity at 70.5 h | % | 1.93
O=C(Cc1ccc2c(c1)CCO2)N1CCN(c2ccccn2)CC1 | cytotoxicity at 70.5 h | % | 2.5
COc1ccccc1CN1C(=O)O[C@@H]2CN(Cc3cccc(C)n3)C[C@@H]21 | cytotoxicity at 70.5 h | % | 20.9
COCC1CCN(c2nc(C(C)(C)C)nc3c2cnn3C)C1 (configuration not stated) | cytotoxicity at 70.5 h | % | 15.8
O=C(NCC1CCN(Cc2cc3ccccc3[nH]2)C1)c1ccsc1 (configuration not stated) | cytotoxicity at 70.5 h | % | -9.16
CC(C)Oc1cc(N2CCC3(CC2)[C@H](O)C[C@@H]3O)nc(N)n1 | cytotoxicity at 70.5 h | % | -1.26
O=C(Nc1cc(C2CCOCC2)[nH]n1)c1ccc(Cl)cn1 | cytotoxicity at 70.5 h | % | -1.48
CC(C)n1c(C2CCCN(CC(=O)NC3CC3)C2)nc2ccccc21 (configuration not stated) | cytotoxicity at 70.5 h | % | -1.26
CN(C)S(=O)(=O)NCC1CCN(Cc2ccccc2F)CC1 | cytotoxicity at 70.5 h | % | -9.47
Nc1ncccc1CN1C[C@H]2OC(=O)N(Cc3ccccn3)[C@H]2C1 | cytotoxicity at 70.5 h | % | -3.5
CN(Cc1cccnc1)[C@@H]1CN(c2ccccn2)[C@@H]2CCCO[C@H]12 | cytotoxicity at 70.5 h | % | -9.04
